Each entry below carries its recorded IC50.
Target: DRB1*1501 (Homo sapiens, UniProt P01903+P01911)
Construct: made in house; host or cells: EBV-transformed homozygous human B cell lines, transfected fibroblasts or single-allele 721.221 transfectants
Assay: biochemical
Type: binding
Settings: Table 4; read-out: IC50 nM to purified HLA DRB1*1501

[
  {
    "input smiles": "CC[C@H](C)[C@H](NC(=O)[C@@H](N)Cc1ccc(O)cc1)C(=O)N[C@@H](CCC(N)=O)C(=O)N[C@@H](CCSC)C(=O)N[C@@H](CS)C(=O)N[C@H](C(=O)N[C@@H](CCC(=O)O)C(=O)N[C@@H](CC(C)C)C(=O)N[C@@H](CCCCN)C(=O)N[C@@H](CC(C)C)C(=O)N[C@@H](CO)C(=O)N[C@@H](CC(=O)O)C(=O)N[C@@H](Cc1ccc(O)cc1)C(=O)N[C@@H](CCC(=O)O)C(=O)NCC(=O)O)[C@@H](C)O",
    "IC50": "594 nM"
  },
  {
    "input smiles": "CC[C@H](C)[C@H](NC(=O)[C@H](CCCCN)NC(=O)[C@H](CC(N)=O)NC(=O)[C@H](C)NC(=O)[C@H](CCCCN)NC(=O)[C@H](CCC(=O)O)NC(=O)[C@H](CC(C)C)NC(=O)[C@H](Cc1ccc(O)cc1)NC(=O)[C@H](Cc1ccc(O)cc1)NC(=O)[C@@H](NC(=O)[C@H](Cc1c[nH]cn1)NC(=O)[C@@H](NC(=O)[C@H](CCC(=O)O)NC(=O)[C@H](CCCNC(=N)N)NC(=O)[C@@H](N)CCCNC(=N)N)C(C)C)[C@@H](C)CC)C(=O)O",
    "IC50": "4.5 nM"
  },
  {
    "input smiles": "CC[C@H](C)[C@H](N)C(=O)N[C@@H](Cc1ccc(O)cc1)C(=O)N[C@@H](CCC(N)=O)C(=O)N[C@H](C(=O)N[C@@H](CC(C)C)C(=O)N[C@@H](CO)C(=O)N[C@H](C(=O)N[C@@H](Cc1ccc(O)cc1)C(=O)N[C@@H](CO)C(=O)N[C@H](C(=O)N[C@H](C(=O)N[C@@H](C)C(=O)N[C@@H](CO)C(=O)N[C@@H](CO)C(=O)N[C@@H](CC(C)C)C(=O)N[C@@H](C)C(=O)O)C(C)C)[C@@H](C)O)[C@@H](C)CC)[C@@H](C)CC",
    "IC50": "4.7 nM"
  },
  {
    "input smiles": "CC[C@H](C)[C@H](NC(=O)[C@H](CC(C)C)NC(=O)[C@H](C)NC(=O)[C@H](CO)NC(=O)[C@H](CCCNC(=N)N)NC(=O)[C@H](C)NC(=O)[C@H](CC(C)C)NC(=O)[C@H](Cc1ccccc1)NC(=O)[C@@H](NC(=O)[C@@H](N)CC(C)C)[C@@H](C)CC)C(=O)N[C@@H](CC(C)C)C(=O)N[C@@H](CCCNC(=N)N)C(=O)NCC(=O)N[C@@H](CO)C(=O)N[C@H](C(=O)O)C(C)C",
    "IC50": "23 nM"
  },
  {
    "input smiles": "CC[C@H](C)[C@H](NC(=O)[C@H](CCC(N)=O)NC(=O)[C@H](CCC(=O)O)NC(=O)[C@@H](N)Cc1ccccc1)C(=O)N[C@H](C(=O)N[C@@H](Cc1ccccc1)C(=O)N[C@@H](CCSC)C(=O)N[C@@H](CCC(N)=O)C(=O)N[C@@H](C)C(=O)N[C@@H](CC(C)C)C(=O)N[C@@H](CCC(N)=O)C(=O)N[C@@H](CC(C)C)C(=O)N[C@@H](CC(C)C)C(=O)N[C@@H](CC(C)C)C(=O)N[C@@H](CCC(=O)O)C(=O)O)[C@@H](C)O",
    "IC50": "7 nM"
  },
  {
    "input smiles": "CC[C@H](C)[C@H](NC(=O)[C@H](CCC(N)=O)NC(=O)[C@H](CC(C)C)NC(=O)[C@H](CCSC)NC(=O)[C@H](CC(C)C)NC(=O)[C@@H](N)CO)C(=O)NCC(=O)N[C@@H](CC(N)=O)C(=O)N[C@@H](CCSC)C(=O)N[C@H](C(=O)N[C@@H](CO)C(=O)N[C@H](C(=O)N[C@@H](Cc1c[nH]c2ccccc12)C(=O)N[C@H](C(=O)N[C@@H](CO)C(=O)N[C@@H](Cc1c[nH]cn1)C(=O)N[C@@H](CO)C(=O)O)C(C)C)[C@@H](C)CC)[C@@H](C)CC",
    "IC50": "34 nM"
  },
  {
    "input smiles": "CC[C@H](C)[C@H](N)C(=O)N[C@@H](CC(C)C)C(=O)N[C@@H](CO)C(=O)N[C@H](C(=O)N[C@@H](Cc1ccc(O)cc1)C(=O)N[C@@H](CO)C(=O)N[C@H](C(=O)N[C@H](C(=O)N[C@@H](C)C(=O)N[C@@H](CO)C(=O)N[C@@H](CO)C(=O)N[C@@H](CC(C)C)C(=O)N[C@@H](C)C(=O)N[C@@H](CC(C)C)C(=O)N[C@@H](C)C(=O)N[C@H](C(=O)O)[C@@H](C)CC)C(C)C)[C@@H](C)O)[C@@H](C)CC",
    "IC50": "20 nM"
  }
]

Where these numbers come from: patent US9511134B2
